# Tested on: 648629-189-R-J1-PDC complex spheroids viability
# Assay summary: Anticancer human tumor 648629-189-R-J1-PDC patient-derived bladder carcinoma cell line growth inhibition [CLK]
# Study conditions: curve of first compound; second compound 0.0316 µM
Answer each item with its documented pIC50.
Give bare numbers, as −log10 of the molar value.

Past entries and their recorded results:
Ask: Look up and state reported pIC50 for CCCS(=O)(=O)Nc1ccc(F)c(C(=O)c2c[nH]c3ncc(-c4ccc(Cl)cc4)cc23)c1F + CN1CCN(c2cc(C(=O)Nc3cc4cc(-c5cnn(C)c5)ccc4cn3)ccn2)CC1
Result: 5.15

Ask: Give the measured pIC50 for C=C(F)C(=O)N1CCN(c2nc(OCC3CCCN3C)nc3c2CCN(c2cccc4cccc(Cl)c24)C3)CC1CC#N (stereo unspecified) + CN1CCN(c2cc(C(=O)Nc3cc4cc(-c5cnn(C)c5)ccc4cn3)ccn2)CC1
Result: 5.24

Ask: State its pIC50: CC(C)CC(NC(=O)C(Cc1ccccc1)NC(=O)c1cnccn1)B(O)O (stereo unspecified) + CNC(=O)c1ccc(Nc2nc(OC3CCCC3)c3c(-c4ccc5nc(C)oc5c4)c[nH]c3n2)c(OC)c1
Result: 8.52

Ask: For the compound CC1COCCN1c1cc(C2(S(C)(=N)=O)CC2)nc(-c2ccnc3[nH]ccc23)n1 (stereo unspecified) + CNC(=O)c1ccc(Nc2nc(OC3CCCC3)c3c(-c4ccc5nc(C)oc5c4)c[nH]c3n2)c(OC)c1 , give its reported pIC50.
Result: 5.62

Ask: Please list pIC50 recorded for the compound COC1C=CCC(C)C(C)S(=O)(=O)NC(=O)c2ccc3c(c2)N(CC2CCC21)CC1(CCCc2cc(Cl)ccc21)CO3 (stereo unspecified) + CNC(=O)c1ccc(Nc2nc(OC3CCCC3)c3c(-c4ccc5nc(C)oc5c4)c[nH]c3n2)c(OC)c1
Result: 5.75

Ask: For the compound Nc1ccn(C2OC(CO)C(O)C2(F)F)c(=O)n1 (stereo unspecified) + CNC(=O)c1ccc(Nc2nc(OC3CCCC3)c3c(-c4ccc5nc(C)oc5c4)c[nH]c3n2)c(OC)c1 , report pIC50.
Result: 7.42

Ask: Dear colleague, please send me the reported pIC50 for COC1C=CCC(C)C(C)S(=O)(=O)NC(=O)c2ccc3c(c2)N(CC2CCC21)CC1(CCCc2cc(Cl)ccc21)CO3 (stereo unspecified) + CN1CCN(c2cc(C(=O)Nc3cc4cc(-c5cnn(C)c5)ccc4cn3)ccn2)CC1 when you can.
Result: 5.68

Ask: Write down pIC50 measured for item CC1COCCN1c1cc(C2(S(C)(=N)=O)CC2)nc(-c2ccnc3[nH]ccc23)n1 (stereo unspecified) + CN1CCN(c2cc(C(=O)Nc3cc4cc(-c5cnn(C)c5)ccc4cn3)ccn2)CC1
Result: 5.34

Ask: Identify measured pIC50 associated with C=C(F)C(=O)N1CCN(c2nc(OCC3CCCN3C)nc3c2CCN(c2cccc4cccc(Cl)c24)C3)CC1CC#N (stereo unspecified) + CNC(=O)c1ccc(Nc2nc(OC3CCCC3)c3c(-c4ccc5nc(C)oc5c4)c[nH]c3n2)c(OC)c1
Result: 5.23

Ask: Give a short answer stating reported pIC50 for COc1ccc([C@@H](O)c2cc(-c3ncnc4cc(N5CCOCC5)ccc34)c(F)cc2Cl)nn1 + CNC(=O)c1ccc(Nc2nc(OC3CCCC3)c3c(-c4ccc5nc(C)oc5c4)c[nH]c3n2)c(OC)c1 .
Result: 5.01

For every listed record, write down its pIC50.
1. NC(=O)C(=Cn1cnc(-c2cc(C(F)(F)F)cc(C(F)(F)F)c2)n1)c1cncnc1 + CNC(=O)c1ccc(Nc2nc(OC3CCCC3)c3c(-c4ccc5nc(C)oc5c4)c[nH]c3n2)c(OC)c1
2. Nc1ccccc1NC(=O)c1ccc(CNC(=O)OCc2cccnc2)cc1 + CN1CCN(c2cc(C(=O)Nc3cc4cc(-c5cnn(C)c5)ccc4cn3)ccn2)CC1
3. CC(Nc1ccc2c(c1)OCCn1cc(N3C(=O)OCC3C(F)F)nc1-2)C(N)=O (stereo unspecified) + CNC(=O)c1ccc(Nc2nc(OC3CCCC3)c3c(-c4ccc5nc(C)oc5c4)c[nH]c3n2)c(OC)c1

Result:
[7.28, 5.73, 5.23]
